TEST_METHOD_NOTES: Monolayer dispersion threshold of metal salt on silica gel by XRD diffraction peak intensity extrapolation
Format: physicochemical
PARTICULARS: salt impregnated on silica gel at 90 °C, dried 120 °C 10 h
QUANTITY: monolayer dispersion threshold on silica gel (g/g)

> print(dat)
                                   compound  observed.result
1  O=S(=O)([O-])[O-].[Cu+2] [CuSO4, copper sulfate]             0.79
2  O.O.O.O.O.O.O=[N+]([O-])[O-].O=[N+]([O-])[O-].[Co+2] [Co(NO3)2, cobalt nitrate]             0.63
3  [Cl][Fe]([Cl])[Cl] [FeCl3, ferric chloride]             0.43
4  CC(=O)[O-].CC(=O)[O-].O.O.[Zn+2] [Zn(AC)2, zinc acetate]             0.18
5  O.O=[N+]([O-])[O-].O=[N+]([O-])[O-].[O]=[Zr+2]             1.02
